All values here come from ChEMBL document CHEMBL1201862.

Tested on: NCI-H226
Experiment: NCI tumour cell line growth inhibition, 48 h
Calls of active or inactive are those of the source. Rule as the data show it: active = GI50 up to about 1.1 µM and inactive = higher.
The following molecules are shown together with reported GI50 values.

>  <molecule>
O=C(Nc1ccc(/N=N/c2ccccc2)cc1)Sc1ccccc1C(=O)O

>  <GI50>
> 100 µM (inactive)

$$$$
>  <molecule>
NCCCCN(CCCN)C(=O)c1ccccc1

>  <GI50>
> 100 µM (inactive)

$$$$
>  <molecule>
Cc1cc(O)c2c(c1)C(=O)c1c(c(O)cc(O)c1-c1c(O)cc(O)c3c1C(=O)c1cc(C)cc(O)c1C3=O)C2=O [SKYRIN]

>  <GI50>
3.07 µM (inactive)

$$$$
>  <molecule>
OC(C#CCN1CCCC1)(c1ccccc1)c1ccccc1Cl (configuration not stated)

>  <GI50>
80.7 µM (inactive)

$$$$
>  <molecule>
O=C(O)CCC(NC(=O)c1ccc(Nc2nc3ccc(C(F)(F)F)cc3nc2C(=O)O)cc1)C(=O)O (configuration not stated)

>  <GI50>
> 100 µM (inactive)

$$$$

Inquiry: Returns the measured GI50 for the input molecule. Input: CCOC1=NC(=O)CC(c2ccccc2)S1 (configuration not stated)
Reply text: 27.8 µM (inactive)

Inquiry: Returns the measured GI50 for the input molecule. Input: CCCCCCOc1ccc(C(=O)N(C)O)cc1
Reply text: 13.5 µM (inactive)
